The reported measurements were obtained from patent US20060257938A1.

Below, each entry is listed alongside its reported DR/DR SA.
# TEST_DESCRIPTION: Probe fluorescence ratio response to stearic acid relative to ADIFAB2
# Type: binding
# SETUP_CONDITIONS: response relative to ADIFAB2

{"MOLECULE": "18I 31L 73L 72A (protein, listed as Rattus norvegicus, PEPTIDE (1)...(131) wild-type rat intestinal fatty acid binding protein) AFDGTWKVDRNENYEKFIEKMGINVVKRKLLAHDNLKLTITQEGNKFTVKESSNFRNIDVVFELGVDFAYSALDGTELTGTWTMEGNKLVGKFKRVDNGKELIAVREISGNELIQTYTYEGVEAKRIFKKE", "DR/DR SA": 0.390}

Fill in the blank: the reported DR/DR SA of 14L 18L 73W 117S 72A (protein, listed as Rattus norvegicus, PEPTIDE (1)...(131) wild-type rat intestinal fatty acid binding protein) AFDGTWKVDRNENLEKFLEKMGINVVKRKLGAHDNLKLTITQEGNKFTVKESSNFRNIDVVFELGVDFAYSAWDGTELTGTWTMEGNKLVGKFKRVDNGKELIAVREISGNELIQTSTYEGVEAKRIFKKE is ____.
−0.005
